Test system: KB 3-1
ASSAY_INFO: Cytotoxicity against human KB 3-1 cells assessed as inhibition of cell proliferation incubated for 5 days by MTT assay
Type: functional, cell-based
CONDITION_DESCRIPTION: KB 3-1, 120 h
MEASUREMENT_LABEL: log10 IC50 (log10 of the value in µM)
# values: log10(IC50), units µM

Solved entries:
- CHEMICAL_STRING: "CC(C)=CCc1c(C)c(C(=O)O)c(O)c(CC=C(C)C)c1O"
  log10 IC50: 1.63
- CHEMICAL_STRING: "CC(C)=CCC/C(C)=C/Cc1c(O)c(Cl)c(C)c(C=O)c1O"
  log10 IC50: 0.89
- CHEMICAL_STRING: "CC(C)=CCc1c(C)cc(O)c(CC=C(C)C)c1O"
  log10 IC50: 1.76
- CHEMICAL_STRING: "C/C(=C\\c1csc(C)n1)[C@@H]1C[C@@H]2O[C@]2(C)CCC[C@H](C)[C@H](O)[C@@H](C)C(=O)C(C)(C)[C@@H](O)CC(=O)O1"
  log10 IC50: -4.16

Attention now shifts to the item below.
// CC(C)=CCC/C(C)=C/Cc1c(O)cc(C)c(C=O)c1O : log10 IC50 value = 1.80

###

Test system: SK-OV-3
ASSAY_INFO: Cytotoxicity against human SK-OV-3 cells assessed as inhibition of cell proliferation incubated for 5 days by MTT assay
Format: functional, cell-based
CONDITION_DESCRIPTION: SK-OV-3, 120 h
MEASUREMENT_LABEL: IC50 (µM)
Give just the number in µM; leave the unit off.

Entry CC(C)=CCC/C(C)=C/Cc1c(O)c(Cl)c(C)c(C=O)c1O — recorded IC50 = 5.6

###

Tested on: L929
ASSAY_INFO: Cytotoxicity against mouse L929 cells assessed as inhibition of cell proliferation incubated for 5 days by MTT assay
Type: functional, cell-based
CONDITION_DESCRIPTION: L929, 120 h
Documented IC50 across a set of compounds
Note: unit µM is implicit; provide only the numeric part.

- COMPOUND: "CC(C)=CCC/C(C)=C/Cc1c(O)c(Cl)c(C)c(C=O)c1O"
  TESTED_ON: "L929"
  RECORDED_VALUE: 18
- COMPOUND: "CC(C)=CCC/C(C)=C/Cc1c(O)cc(C)c(C=O)c1O"
  TESTED_ON: "L929"
  RECORDED_VALUE: 66
- COMPOUND: "CC(C)=CCc1c(C)c(C(=O)O)c(O)c(CC=C(C)C)c1O"
  TESTED_ON: "L929"
  RECORDED_VALUE: 59.2
- COMPOUND: "C/C(=C\\c1csc(C)n1)[C@@H]1C[C@@H]2O[C@]2(C)CCC[C@H](C)[C@H](O)[C@@H](C)C(=O)C(C)(C)[C@@H](O)CC(=O)O1 [PATUPILONE]"
  TESTED_ON: "L929"
  RECORDED_VALUE: 0.0014

Now turn to the next compound.
# IC50 measured on L929 for item CC(C)=CCc1c(C)cc(O)c(CC=C(C)C)c1O = 53.8

###

compounds and their reported MIC
System: Mucor hiemalis
ASSAY_INFO: Antifungal activity against Mucor hiemalis DSM 2656 assessed as inhibition of fungal growth incubated for overnight by serial dilution method
Format: functional
# value in µg/mL; strip the unit string

- CHEMICAL_STRING: "CC(C)=CCC/C(C)=C/Cc1c(O)cc(C)c(C=O)c1O"
  UOM: "µg/mL"
  MIC: 16.7

# compound CC(C)=CCc1c(C)cc(O)c(CC=C(C)C)c1O ; its MIC = 33.3

Entry under test: CC(C)=CCC/C(C)=C/Cc1c(O)c(Cl)c(C)c(C=O)c1O . Its MIC was 33.3

MIC recorded for this compound, CC(C)=CCc1c(C)c(C(=O)O)c(O)c(CC=C(C)C)c1O , is 66.7
